System: SK-MEL-5 melanoma
Experiment: NCI tumour cell line growth inhibition, 48 h
Measured attribute: TGI

[[record]]
compound = "O=C(NCC(F)(F)F)Nc1cccc(-c2cnc3cc(-c4ccc(F)cc4)ccn23)c1"
measured_attribute = "TGI"
result = "14 µM"

[[record]]
compound = "CCCCCC(=O)Nc1nc2nc[nH]c2c(=O)[nH]1"
measured_attribute = "TGI"
result = "> 100 µM"

[[record]]
compound = "O=C(NCCCc1cn[nH]c1)c1ccc(-c2ccncc2)c(C#Cc2ccc(F)cc2)c1"
measured_attribute = "TGI"
result = "16.6 µM"


# input Give its TGI value. Item: COC(=O)Nc1nc2ccc(NC(=O)c3ccc(I)cc3)cc2[nH]1
# output > 100 µM

# input Quick one: TGI for CC(=O)OC[C@H]1On2nnnc2[C@H](OC(C)=O)[C@@H](OC(C)=O)[C@@H]1OC(C)=O ?
# output > 100 µM

# input Quick one: TGI for CC1(C)Oc2ccc3c(=O)cc(-c4ccccc4)oc3c2C1C(=O)O (stereo unspecified) ?
# output > 100 µM

# input Bench note: what TGI did CC(CNC(N)=O)NC(N)=O (stereo unspecified) show?
# output > 100 µM
